Recorded IC50 values for a group of compounds are listed next.
# Assay name: Antioxidant activity assessed as singlet 1O2 oxygen quenching activity after 2 mins by EPR spectrometry
# Type: functional
Reported metric: IC50 (nM)

# Chemical structure, Reported metric, Value
measured = [
    ("Oc1ccc(/C=N/c2ccccc2O)cc1O", "IC50", 2260),
    ("Oc1ccccc1/N=C/c1ccccc1", "IC50", 3470),
    ("COc1cccc(/C=N/c2ccccc2O)c1", "IC50", 1420),
    ("Oc1ccc(/C=C/c2cc(O)cc(O)c2)cc1", "IC50", 16900),
    ("Oc1ccccc1/C=N/c1ccccc1O", "IC50", 2920),
    ("COc1cc(/C=C/C(=O)CC(=O)/C=C/c2ccc(O)c(OC)c2)ccc1O", "IC50", 2750),
]

* * *

This listing pairs compounds with measured pIC50.
# Assay name: Antioxidant activity assessed as singlet 1O2 oxygen quenching activity after 2 mins by EPR spectrometry
# Assay type: functional
pIC50: −log10 of the molar value.

# Chemical structure, pIC50
rows = [
    ("COc1ccc(/C=N/c2ccccc2O)cc1", 5.89),
    ("Oc1ccc(/C=N/c2ccccc2O)cc1", 6.00),
    ("Oc1cccc(/C=N/c2ccccc2O)c1", 5.66),
]
